assay-method-text: Pharmacokinetic study, single oral gavage dosing
Type: in vivo
applied-conditions: mouse, 40 mg/kg, 40 mpk, 15% solutol HS15 + 85% PBS, ICR mice, plasma, read-out: Time to peak tmax
observation-type: Tmax (h)

# compound, Tmax, h
data = [
    ("COc1cc2nn(CCC(C)(C)O)cc2cc1NC(=O)c1cccc(C)[n+]1[O-] [Compound 163]", 4),
]

P = COc1cc2nn([C@H]3CC[C@H](O)CC3)cc2cc1NC(=O)c1cccc(C)[n+]1[O-] [Compound 013]
Q = COc1cc2nn([C@H]3CC[C@](C)(O)CC3)cc2cc1NC(=O)c1cccc(C)[n+]1[O-] [Compound 001]
Task: Form: Entry with minimum Tmax (choose one): P / Q State your choice using its label.
Output: P

---

assay-method-text: Plasma protein binding (PPB), equilibrium dialysis, mouse plasma
Assay type: in vitro ADME
applied-conditions: 5 h at 37° C., read-out: Plasma protein binding (Bound %) Mouse (converted)
observation-type: fraction unbound at 5 h, 1 μM

Examples with their reported fraction unbound at 5 h, 1 μM follow.
# compound, fraction unbound at 5 h, 1 μM
data = [
    ("CCOc1cc2nn([C@H]3CC[C@H](O)CC3)cc2cc1NC(=O)c1cccc(C)[n+]1[O-]", 0.123),
    ("COc1cc2nn(CCC(C)(C)O)cc2cc1NC(=O)c1cccc(C)[n+]1[O-]", 0.162),
    ("COc1cc2nn([C@H]3CC[C@](C)(O)CC3)cc2cc1NC(=O)c1cccc(C)[n+]1[O-]", 0.201),
]

I = COc1cc2nn([C@H]3CC[C@H](O)CC3)cc2cc1NC(=O)c1cccc(C)[n+]1[O-]
II = CC(C)(O)CCn1cc2cc(NC(=O)c3cccc(C(F)(F)F)n3)c(C(C)(C)O)cc2n1 [A, reference compound]
Task: Form: Entry with minimum fraction unbound at 5 h, 1 μM (choose one): I / II State your choice using its label.
Output: II

---

assay-method-text: Plasma protein binding (PPB), equilibrium dialysis, human plasma
Assay type: in vitro ADME
applied-conditions: 5 h at 37° C., read-out: Plasma protein binding (Bound %) Human (converted)
observation-type: fraction unbound at 5 h, 1 μM

Examples with their reported fraction unbound at 5 h, 1 μM follow.
# compound, observation-type, reported
data = [
    ("CCOc1cc2nn([C@H]3CC[C@H](O)CC3)cc2cc1NC(=O)c1cccc(C)[n+]1[O-]", "fraction unbound at 5 h, 1 μM", 0.131),
    ("COc1cc2nn([C@H]3CC[C@H](O)CC3)cc2cc1NC(=O)c1cccc(C)[n+]1[O-]", "fraction unbound at 5 h, 1 μM", 0.191),
    ("COc1cc2nn([C@H]3CC[C@](C)(O)CC3)cc2cc1NC(=O)c1cccc(C)[n+]1[O-]", "fraction unbound at 5 h, 1 μM", 0.19),
]

1 = COc1cc2nn(CCC(C)(C)O)cc2cc1NC(=O)c1cccc(C)[n+]1[O-]
2 = CC(C)(O)CCn1cc2cc(NC(=O)c3cccc(C(F)(F)F)n3)c(C(C)(C)O)cc2n1 [A, reference compound]
Task: Form: Entry with minimum fraction unbound at 5 h, 1 μM (choose one): 1 / 2 State your choice using its label.
Output: 2

---

assay-method-text: Pharmacokinetic study, single oral gavage dosing
Format: in vivo
applied-conditions: mouse, 40 mg/kg, 40 mpk, 15% solutol HS15 + 85% PBS, ICR mice, plasma, read-out: Average retention time MRT
observation-type: MRT (h)

A = COc1cc2nn(CCC(C)(C)O)cc2cc1NC(=O)c1cccc(C)[n+]1[O-]
B = COc1cc2nn([C@H]3CC[C@](C)(O)CC3)cc2cc1NC(=O)c1cccc(C)[n+]1[O-]
C = COc1cc2nn([C@H]3CC[C@H](O)CC3)cc2cc1NC(=O)c1cccc(C)[n+]1[O-]
Task: Put these in order: smallest MRT first, largest last. Kindly provide the labels arranged according to the requested ordering.
Output: A, C, B

Where do these numbers come from? They come from patent US12617770B2.
